All values here come from the Human Domainome abundance scans (Beltran et al. 2025).

B1: Formin-binding protein 4, residues 200 to 261; numbered along this chain, Q8N3X1 (parent)
chain: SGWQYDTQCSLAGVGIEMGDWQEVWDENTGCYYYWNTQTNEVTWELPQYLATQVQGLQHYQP

- Variants of: B1
- method: abundance fitness (aPCA) (normalised: wild type 0, dead -1); higher = more abundant; growth selection in yeast, the domain comes from the species named
- conditionLabel: Homo sapiens
Short version: abundance fitness at least -0.4 is label 1, less is label 0.

Take a look at these entries with their results.
| macromoleculeSequence | classLabel |
| --- | --- |
| SGWQYDTQCSLAGVWIEMGDWQEVWDENTGCYYYWNTQTNEVTWELPQYLATQVQGLQHYQP [G15W] | label 0 |
| SGWQYDTQCSLAGVGIEMGDWQEVWDENTGCYYYWNTQTNEVTWELPQYLSTQVQGLQHYQP [A51S] | label 1 |
| SGWQYDTQCSLAGVGIEMGDWQSVWDENTGCYYYWNTQTNEVTWELPQYLATQVQGLQHYQP [E23S] | label 0 |
| SGWQYDTQCSLAGVGIEMGDWEEVWDENTGCYYYWNTQTNEVTWELPQYLATQVQGLQHYQP [Q22E] | label 1 |
| SGWQYDTQCSLAGVGEEMGDWQEVWDENTGCYYYWNTQTNEVTWELPQYLATQVQGLQHYQP [I16E] | label 0 |

Request: Assess whether reported abundance fitness for SGWQYDTQCSLAGVGIEMGDWQEVWDENTGCYYYWNTQTNEVTWELPQYLATQVQGLQHYQY [P62Y] sits at -0.4 or higher.
Result: label 1

Request: Assess whether reported abundance fitness for SGWQYDTQCSLAGVGIEMGDWQEVWDENTGCYYYWNTQTNEVTSELPQYLATQVQGLQHYQP [W44S] sits at -0.4 or higher.
Result: label 1

Request: Assess whether reported abundance fitness for SGWQYDTQCSLAGVGIEMGDWPEVWDENTGCYYYWNTQTNEVTWELPQYLATQVQGLQHYQP [Q22P] sits at -0.4 or higher.
Result: label 0

Request: Assess whether reported abundance fitness for IGWQYDTQCSLAGVGIEMGDWQEVWDENTGCYYYWNTQTNEVTWELPQYLATQVQGLQHYQP [S1I] sits at -0.4 or higher.
Result: label 1

Request: Assess whether reported abundance fitness for SGWQYDTQCSLAGVGIEMGDWQEVWDENTGCYYYWNTQVNEVTWELPQYLATQVQGLQHYQP [T39V] sits at -0.4 or higher.
Result: label 0
